Where do the numbers come from? From patent US20230265151A1.

molecular target: human GLP-1 receptor (human, UniProt P43220 24-463); experiment: cell-based or functional assay
Measured cAMP EC50 (1.0% HSA) values are reported for all entries that follow.
measuredMetric: cAMP EC50 (1.0% HSA) (nM)

1. YXEGTXTSDYXIXLDXIAQXKFIXXLIKGGPSSGAPPPS (Y-Aib-EGT-αMeF(2F)-TSDY-Aib-I-αMeL-LD-Orn-IAQ-Aib-K((2-[2-(2-Amino-ethoxy)-ethoxy]-acetyl)2-(γ-Glu)-(10-(4-carboxyphenoxy)decanoyl))FI-(D-Glu)-αMeY-LIK((2-[2-(2-Amino-ethoxy)-ethoxy]-acetyl)2-(γ-Glu)-(10-(4-carboxyphenoxy)decanoyl))GGPSSGAPPPS-NH2) [Example 240]; 150
2. YXEGTXTSDXSIXLDXIAQXKFIXXLIKGGPSSGAPPPS (Y-Aib-EGT-αMeF(2F)-TSD-4Pal-SI-αMeL-LD-Orn-IAQ-Aib-K((2-[2-(2-Amino-ethoxy)-ethoxy]-acetyl)2-CO-(CH2)12-CO2H)Fl-(D-Glu)-αMeY-LIK((2-[2-(2-Amino-ethoxy)-ethoxy]-acetyl)2-CO-(CH2)12-CO2H)GGPSSGAPPPS-NH2 …) [Example 222]; 13.8
3. YXEGTXTSDXXIXLDXIAQXKFIKXLIEGGPSSGAPPPS (Y-Aib-EGT-αMeF(2F)-TSD-4Pal-Aib-I-αMeL-LD-Orn-IAQ-Aib-K((2-[2-(2-Amino-ethoxy)-ethoxy]-acetyl)2-(γ-Glu)-CO-(CH2)12-CO2H)FIK((2-[2-(2-Amino-ethoxy)-ethoxy]-acetyl)2-(γ-Glu)-CO-(CH2)12-CO2H)-αMeY-LIEGGPSSGAPPPS-NH2) [Example 218]; 36.6
4. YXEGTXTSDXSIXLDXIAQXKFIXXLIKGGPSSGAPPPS (Y-Aib-EGT-αMeF(2F)-TSD-2Nal-SI-αMeL-LD-Orn-IAQ-Aib-K((2-[2-(2-Amino-ethoxy)-ethoxy]-acetyl)2-(γ-Glu)-CO-(CH2)12-CO2H)Fl-(D-Glu)-αMeY-LIK((2-[2-(2-Amino-ethoxy)-ethoxy]-acetyl)2-(γ-Glu)-CO-(CH2)12-CO2H)GGPSSGAPPPS-NH2) [Example 253]; 192
5. YXEGTXTSDKSIXLDXKAQXEXIXXLIEGGPSSGAPPPS (Y-Aib-EGT-αMeF(2F)-TSDK((2-[2-(2-Amino-ethoxy)-ethoxy]-acetyl)2-(γ-Glu)-CO-(CH2)10-CH3)SI-αMeL-LD-Orn-K((2-[2-(2-Amino-ethoxy)-ethoxy]-acetyl)2-(γ-Glu)-CO-(CH2)10-CH3)AQ-Aib-E-αMeF-I-(D-Glu)-αMeY-LIEGGPSSGAPPPS-NH2) [Example 293]; 10.7
6. YXEGTXTSDXSIXLDXKAQXEFIXXLIEGGPSSGAPPPSK (Y-Aib-EGT-αMeF(2F)-TSD-4Pal-SI-αMeL-LD-Orn-K((2-[2-(2-Amino-ethoxy)-ethoxy]-acetyl)3-(γ-Glu)-CO-(CH2)12-CO2H)AQ-Aib-EFI-(D-Glu)-αMeY-LIEGGPSSGAPPPSK((2-[2-(2-Amino-ethoxy)-ethoxy]-acetyl)3-(γ-Glu)-CO-(CH2)12-CO2H)-NH2) [Example 225]; 51.6
7. YXEGTXTSDYXIXLDXIAQXEFIKXLIKGGPSSGAPPPS (Y-Aib-EGT-αMeF(2F)-TSDY-Aib-I-αMeL-LD-Orn-IAQ-Aib-EFIK(2-[2-(2-Amino-ethoxy)-ethoxy]-acetyl)2-(γ-Glu)-(11-(4-carboxyphenoxy)undecanoyl)-αMeY-LIK((2-[2-(2-Amino-ethoxy)-ethoxy]-acetyl)2-(γ-Glu)-(11-(4-carboxyphenoxy)undecanoyl)GGPSSGAPPPS-NH2)) [Example 312]; 50.8
